Some molecules, each annotated with its measured z-score.
ASSAY_REMARKS: basal MM1S mitochondrial membrane potential changes, profiling panel, cell-based, JC-1 fluorescence, 24 h, 100 nL compound (AID 1170); note: test concentration not given here
REPORTED_CONDITIONS: higher = more signal
Give the figure only, with no unit attached.

SMILES_TEXT	z-score
COC(=O)[C@@H]1CC[C@H](C)[C@@H](c2ccc(C)cc2)N1C(=O)c1ccc(C=NOCC[C@@H]2C=C[C@H](OC(C)=O)[C@@H](COC(C)=O)O2)cc1	-0.136

Exam item: Field request: z-score | item: O=C1C=C[C@@H](O)[C@@H]2[C@@H]3C(=O)N(c4ccc(F)cc4F)C(=O)[C@@H]3CC[C@@H]12
Marked response: 0.921

Exam item: Query: z-score; subject: COC(=O)CC=C[C@@H](C)[C@@H](C=NO[C@@H]1O[C@H](COC(C)=O)[C@@H](OC(C)=O)[C@H](OC(C)=O)[C@H]1OC(C)=O)NS(=O)(=O)c1ccc(C)cc1
Marked response: 0.049

----------
ASSAY_REMARKS: small-molecule binders of probe aInhba, primary screen, biochemical, small-molecule microarray, 635/667 nm fluorescence (AID 1148);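 note: score merges 667nm spot fluorescence with signal-to-noise for antibody binding to printed compounds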
REPORTED_CONDITIONS: higher = more signal
Listed here are molecules together with their documented composite z-score.

MOLECULE	composite z-score
C[C@H]1COC(=O)[C@@H]2CCCN2C(=O)[C@@H](C)COC(=O)[C@H](Cc2ccccc2)NC1=O	-0.045
CC(CCN1CCCCc2nc(C)c(C)cc21)=NOC[C@@H](C)[C@H](OCc1ccccc1)C(C)C	-0.37
CO[C@H]1COC(=O)CC=C[C@H](C)COC(=O)[C@@H](C)NC(=O)CC=C[C@@H]1C	-0.25
O=C1[C@H]2[C@H]3[C@H](O)[C@H](O)CC(=NO[C@@H]4O[C@H](CO)[C@@H](O)[C@H](O)[C@H]4O)[C@H]3CC[C@H]2C(=O)N1c1cccc(Oc2ccccc2)c1	-0.0846
CCOC(=O)[C@H](CC(C)C)NC(=O)CCC1CC(OC(=O)NCCc2ccc(F)cc2)CC2(CCCC(COC(=O)NCC(c3ccccc3)c3ccccc3)O2)O1 (stereo partly specified)	0.0111
CCCNC(=O)OC[C@H]1O[C@H](CCON=C(C)CCN2CCCc3nc(C)c(C)cc32)C=C[C@@H]1Oc1ccc(OC)cc1	0.0028
CSCC[C@@H]1NC(=O)CC=C[C@@H](C)COC(=O)[C@@H](C)COC1=O	-0.0736
COC(=O)[C@@H]1CC[C@H](C)[C@@H](c2ccc(C)cc2)N1C(=O)c1ccc(C=NO[C@H](C)c2cn([C@H](CO)Cc3ccccc3)nn2)cc1	0.288

Exam item: For the molecule shown here, O=C(C=Cc1ccc2c(c1)OCO2)c1ccc(F)cc1 , give the reported composite z-score.
Marked response: 0.259

Exam item: Fill blank: measured composite z-score of the molecule COC(=O)CC=C[C@@H](C)[C@@H]1C=C[C@H](O)[C@@H](CO)O1 is ____.
Marked response: -0.163

Exam item: Data request, read-out composite z-score, for CC(CCN1CCCc2nc(C)c(C)cc21)=NO[C@@H](C)c1cc(-c2c(C)cc(C)cc2C)no1
Marked response: 0.111

Exam item: Find the recorded composite z-score belonging to C[C@H](ON=C1[C@H]2CCn3c(=O)n(-c4ccccc4)c(=O)n3[C@H]2[C@H](O)[C@@H]2O[C@H]12)c1cn([C@H](CO)Cc2ccccc2)nn1 and report it.
Marked response: -0.154

Exam item: Requested read-out: composite z-score. Entry: CCCCC#C[C@@H]1C=C[C@H](Oc2cc(OC)c(OC)c(OC)c2)[C@@H](COC(=O)OCC)O1
Marked response: -0.173

Exam item: What measured composite z-score goes with COc1ccc(O[C@@H]2[C@H](O)CO[C@H]2C=Cc2ccccc2)cc1 ?
Marked response: -0.179

Exam item: Look up composite z-score: CC(C)CON=C1C[C@@H](O)[C@@H](O)[C@@H]2[C@@H]3C(=O)N(c4cccc(Oc5ccccc5)c4)C(=O)[C@@H]3CC[C@@H]12
Marked response: -0.016

Exam item: If you can, please state the reported composite z-score value of CC(C)CON=C1C[C@@H](O)[C@@H](O)[C@@H]2[C@@H]3C(=O)N(C[C@@H]4CCCO4)C(=O)[C@@H]3CC[C@@H]12 .
Marked response: -0.0987
